Recorded max_MFI for the following binders
# testTarget: T1, human CD3 on the cell surface (Jurkat cells, expanded human T cells, Jurkat-Lucia NFAT cells, human PBMC) (human, UniProt P07766 23-207; P04234 22-171; P09693 23-182)
# T1 construct: whole, on cells; Endogenous CD3 within the TCR-CD3 complex on cells (also zeta chains and TCR); the cell type is named under assay
# T1 sequence (P07766 23-207, chain 1 of 3): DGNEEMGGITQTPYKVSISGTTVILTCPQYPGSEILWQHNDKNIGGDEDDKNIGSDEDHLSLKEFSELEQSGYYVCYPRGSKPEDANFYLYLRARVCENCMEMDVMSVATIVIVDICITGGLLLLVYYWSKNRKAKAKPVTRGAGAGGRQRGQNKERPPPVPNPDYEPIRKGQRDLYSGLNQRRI
# T1 sequence (P04234 22-171, chain 2 of 3): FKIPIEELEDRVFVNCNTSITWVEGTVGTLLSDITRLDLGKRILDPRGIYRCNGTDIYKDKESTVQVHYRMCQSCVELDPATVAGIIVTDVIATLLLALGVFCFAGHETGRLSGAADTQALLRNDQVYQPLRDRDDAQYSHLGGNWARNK
# T1 sequence (P09693 23-182, chain 3 of 3): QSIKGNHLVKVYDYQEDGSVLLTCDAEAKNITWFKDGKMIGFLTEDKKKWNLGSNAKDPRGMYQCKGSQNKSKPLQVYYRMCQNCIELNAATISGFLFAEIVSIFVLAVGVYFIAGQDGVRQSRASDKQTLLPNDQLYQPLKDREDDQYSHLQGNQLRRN
# assayDetails: FACS, expanded human T cells
# Procedure: The binding of the chimeric antibodies to CD3 on the cell surface was analyzed by detecting the binding of the antibodies to Jurkat cells and human T cells. […] Data analysis was performed by software (CellQuest) to obtain the mean fluorescence density (MFI) of the cells. […]
Supply the numeric figure in MFI, leaving out any unit text.

1. 1-22.6-1-H2a-L2a humanized antibody (antibody, human IgG1, kappa, V domains shown, also called 1-22.6-H2a-L2a) VH: EVQLVQSGSELKKPGASVKVSCKTSGYTFTSYGMSWVRQAPGQGLEWMGWINTYSGVPTYAQDFKGRFVFSLDTSVSTAYLQISSLKAEDTAVYYCARLKNNPFVWGQGTTVTVSS VL: DIVMTQSPDSLAVSLGERATINCRSSQLILHSSGNTYLEWYQQKPGQSPKLLIYKVSNRFSGVPDRFSGSGSGTDFTLTISSLQAEDVAVYYCFQGSHFPWTFGGGTKVEIKR: 15900

INPUT: Any idea what its max_MFI is? The binder is 7-35.6-H2-L3 humanized antibody (antibody, human IgG1, lambda, V domains shown) VH: EVQLVESGGGLVQPGGSLKLSCAASGFTFNTYAMNWVRQASGKGLEWVGRIRSKINNYATYYGDSVKDRFTISRDDSKNTFYLQMNSLKTEDTAVYYCVIHENYGSISWFAYWGQGTLVTVSS VL: ETVVTQEPSLTVSPGGTVTLTCRSSTGAVTTSNYANWVQQKPGQAFTGLIGGTNNRAPWTPARFSGSLLGGKAALTLSGVQPEDEAEYYCALWYSNHWVFGGGTKLTVLG
OUTPUT: 10000
